# procedure_text: ATG_AP_1_CIS: Attagene CIS-FACTORIAL HepG2 Assay for human Activator Protein 1 (AP-1) (AID 2282931)
# measurement_context: HepG2 Attagene cis-factorial AP-1 reporter mRNA; actives raise or lower the signal
Calls of active or inactive are those of the source. Rule for the calls: active = hit-call score of the fitted dose curve at least 0.9, where 1 is the maximum; inactive = score below 0.9.
endpoint_label: outcome

O=C(OC[C@H]1O[C@@H](OC(=O)c2cc(O)c(O)c(OC(=O)c3cc(O)c(O)c(O)c3)c2)[C@H](OC(=O)c2cc(O)c(O)c(OC(=O)c3cc(O)c(O)c(O)c3)c2)[C@@H](OC(=O)c2cc(O)c(O)c(OC(=O)c3cc(O)c(O)c(O)c3)c2)[C@@H]1OC(=O)c1cc(O)c(O)c(OC(=O)c2cc(O)c(O)c(O)c2)c1)c1cc(O)c(O)c(OC(=O)c2cc(O)c(O)c(O)c2)c1 = inactive
Cc1ccc(C)c(O)c1 = inactive
CCCCCCc1ccc(O)cc1O = inactive

----------
# Read-out: Transforming growth factor beta 1 (TGFb1), TGFB1 (gene 7040)
# procedure_text: BSK_KF3CT_TGFb1: BioMAP Diversity Plus: KF3CT Assay for Transforming growth factor beta 1 (TGFb1) Biomarker Activity (AID 2283072)
# measurement_context: primary human keratinocytes with fibroblasts; actives raise or lower the signal
Calls of active or inactive are those of the source. Rule for the calls: active = hit-call score of the fitted dose curve at least 0.9, where 1 is the maximum; inactive = score below 0.9.
Allowed answers: yes (1) (active), no (0) (inactive)

# count of solved cases: 5
CCCCCCc1ccc(O)cc1O = yes (1)
Cc1ccc(O)cc1 = no (0)
Nc1cccc(N)c1 = no (0)
CCCCC(CC)COC(=O)c1ccc(C(=O)OCC(CC)CCCC)cc1 (stereo not drawn) = no (0)
O=C(O)CC(O)C(=O)O (stereo not drawn) = no (0)

# input Name the outcome recorded for "COc1cccc(-c2ccc(/C=C\CN3CCCCCC3)cc2Cl)c1" in the assay.
# output yes (1)

# input Could you please tell me the result logged for "COC(=O)CC(=O)OC" in this assay?
# output no (0)

# input What classification did "CC[C@H]1CC[C@H](NCc2cc3c(cc2OC)[C@H]2C[C@H]2C(=O)N3C)[C@H](c2ccccc2)N1" end up with in this test?
# output no (0)

----------
# procedure_text: ATG_EGR_CIS: Attagene CIS-FACTORIAL HepG2 Assay for human Early Growth Response 1 (EGR1) (AID 2282938)
# measurement_context: HepG2 Attagene CIS-FACTORIAL EGR reporter mRNA; actives raise or lower the signal
Calls of active or inactive are those of the source. The calls were made as follows: active = hit-call score of the fitted dose curve at least 0.9, where 1 is the maximum; inactive = score below 0.9.
Assign a class; possible classes are active, inactive

Example cases with answers are listed next.
COC(=O)CC(=O)OC = inactive
CCc1cc(SCc2sc(-c3ccc(C(F)(F)F)cc3)nc2CN2CCN(c3ccc(OC)cc3)CC2)ccc1OCC(=O)O = active
COc1ccc(/C=C/S(=O)(=O)NC(=O)c2ccc(C)cc2Cl)cc1 = inactive
NC(=O)NO = inactive
O=C(CCCCCCCCc1cccnc1)N1CCC(C=C(c2ccccc2)c2ccccc2)CC1 = active
CC1=CC(=O)CC(C)(C)C1 = inactive

# input Given "CC(C)(O)c1coc(S(=O)(=O)NC(=O)Nc2c3c(cc4c2CCC4)CCC3)c1" , state the outcome it received in this test.
# output inactive

# input // return assay outcome for "Oc1ccc2c(c1)-c1ccccc1C2"
# output active

# input Any idea what this test logged for "CC(=O)c1ccc2c(c1)[C@H](NC(=O)c1ccc(F)cc1)[C@@H](O)C(C)(C)O2" ?
# output inactive

# input # outcome recorded in this test, key = "CC(C)=CCC/C(C)=C\CO"
# output inactive

# input Lab log entry: "CCCCCCc1ccc(O)cc1O" — outcome as called in the assay?
# output active

# input Returns: the outcome recorded for "CCCCCCCCO" in this assay.
# output inactive

# input Just curious, what result did "CNCc1ccc(NC(=O)c2c[nH]c3c2C(=O)CCC3)cc1" get here?
# output inactive

# input Tell me the recorded outcome of this test for "CC(C)=CCCC(C)=CC=O" .
# output active
